tested on: U2OS; assay: Incucyte cell viability with U2OS; format: toxicity, cell-based; settings: human, 24 h, 10 µM, compound concentration 10 uM, replicate number 1, timepoint 24 hours; also: filed as whole numbers so only -1 and 0 and 1 occur
EXPERIMENTAL ENDPOINT: Growth Rate

Field: example entries. Status: answers known.
MOLECULE: CCC(=O)N[C@@H]1CC[C@H](C(=O)N(C)c2ccc(-c3nc4ccccc4o3)cc2)C1
SYSTEM NAME: U2OS
ASSAY VALUE: 0
--
MOLECULE: CCOc1cc2ncc(C#N)c(Nc3ccc(OCc4cccc(F)c4)c(Cl)c3)c2cc1NC(=O)/C=C/CN(C)C
SYSTEM NAME: U2OS
ASSAY VALUE: 0
--
MOLECULE: Cc1cc(C)c(N)c(C#Cc2cccc(F)c2)n1.Cl
SYSTEM NAME: U2OS
ASSAY VALUE: 0

Next, consider the following molecule.
Tell me Growth Rate of CCCCN(CCCC)C(=O)CN1C[C@@H](c2ccc3c(c2)OCO3)[C@H](C(=O)O)[C@H]1c1ccc(OC)cc1 when tested on U2OS.
0

* * *

Reported Population Membrane Permeable-Phenotype (%) values follow for various molecules
system: U2OS; assay: Multiplex assay against U2OS; format: toxicity, cell-based; settings: human, 12 h, 10 µM, compound concentration 10 uM, replicate 1
Give the quantity in %, number only.

Field: example entries. Status: answers known.
MOLECULE: Cc1nc(Cc2cccc(C(F)(F)F)c2)sc1-c1ccc(C(N)=O)nc1 [TP-024n]
ASSAY VALUE: 3

MOLECULE: CCn1c(-c2nonc2N)nc2cnc(Oc3cccc(NC(=O)c4ccc(OCCN5CCOCC5)cc4)c3)cc21 [GSK-269962A]
ASSAY VALUE: 36

MOLECULE: CCCn1c(=O)c2[nH]c(C34CC5CC(CC3C5)C4)nc2n(CCC)c1=O
ASSAY VALUE: 32

Next, consider the following molecule.
Answer with reported Population Membrane Permeable-Phenotype (%) of Cl.Cl.Nc1ncnc2c1c(-c1cccc(OCc3ccccc3)c1)cn2[C@H]1C[C@@H](CN2CCC2)C1
67

* * *

Reported Population Fragmented Nuclei (%) values follow for various molecules
tested on: Fibroblast; assay: Multiplex assay against human fibroblast; type: toxicity, cell-based; details: 24 h, 10 µM, compound concentration 10 uM, replicate 1
Give the quantity in %, number only.

MOLECULE: CCOc1cc(N2CCC(O)CC2)ccc1Nc1ncc2c(n1)N(C1CCCC1)CCC(=O)N2C
SYSTEM NAME: Fibroblast
UNIT OF MEASUREMENT: %
Population Fragmented Nuclei (%): 17
--
MOLECULE: Cc1nc(Cc2cccc(C(F)(F)F)c2)sc1-c1ccc(C(N)=O)nc1 [TP-024n]
SYSTEM NAME: Fibroblast
UNIT OF MEASUREMENT: %
Population Fragmented Nuclei (%): 19
--
MOLECULE: Cl.Cl.Nc1ncnc2c1c(-c1cccc(OCc3ccccc3)c1)cn2[C@H]1C[C@@H](CN2CCC2)C1
SYSTEM NAME: Fibroblast
UNIT OF MEASUREMENT: %
Population Fragmented Nuclei (%): 18
--
MOLECULE: c1ccc2oc(-c3csc(C4CCN(Cc5nc6ncccc6[nH]5)CC4)n3)cc2c1
SYSTEM NAME: Fibroblast
UNIT OF MEASUREMENT: %
Population Fragmented Nuclei (%): 26
--
MOLECULE: CN(C)C/C=C/C(=O)Nc1cc2c(Nc3ccc(F)c(Cl)c3)ncnc2cc1O[C@H]1CCOC1.O=C(O)/C=C\C(=O)O.O=C(O)/C=C\C(=O)O [AFATINIB DIMALEATE]
SYSTEM NAME: Fibroblast
UNIT OF MEASUREMENT: %
Population Fragmented Nuclei (%): 29
--
MOLECULE: COc1ccc(NS(=O)(=O)c2sc3ccc(Cl)cc3c2C)cc1N1CCNCC1.Cl
SYSTEM NAME: Fibroblast
UNIT OF MEASUREMENT: %
Population Fragmented Nuclei (%): 23
--
MOLECULE: CCn1c(-c2nonc2N)nc2cnc(Oc3cccc(NC(=O)c4ccc(OCCN5CCOCC5)cc4)c3)cc21 [GSK-269962A]
SYSTEM NAME: Fibroblast
UNIT OF MEASUREMENT: %
Population Fragmented Nuclei (%): 37

Next, consider the following molecule.
Answer with reported Population Fragmented Nuclei (%) of CCCn1c(=O)c2[nH]c(C34CC5CC(CC3C5)C4)nc2n(CCC)c1=O
17

* * *

Reported Population Mitochondria Different-Phenotype (%) values follow for various compounds
system: Fibroblast; assay: Multiplex assay against human fibroblast; assay type: toxicity, cell-based; conditions: 24 h, 10 µM, compound concentration 10 uM, replicate 1
Give the quantity in %, number only.

COMPOUND: N#Cc1cnc(Nc2cc(NC[C@H]3CNCCO3)c(C(F)(F)F)cn2)cn1 [SRA-737]
SYSTEM NAME: Fibroblast
UNIT OF MEASUREMENT: %
ASSAY VALUE: 2

COMPOUND: CNc1oc(-c2cccc3ccccc23)nc1C#N
SYSTEM NAME: Fibroblast
UNIT OF MEASUREMENT: %
ASSAY VALUE: 0

Answer with reported Population Mitochondria Different-Phenotype (%) of CCCn1c(=O)c2[nH]c(C34CC5CC(CC3C5)C4)nc2n(CCC)c1=O [ROLOFYLLINE]
39

Answer with reported Population Mitochondria Different-Phenotype (%) of CN(C)C/C=C/C(=O)Nc1cc2c(Nc3ccc(F)c(Cl)c3)ncnc2cc1O[C@H]1CCOC1.O=C(O)/C=C\C(=O)O.O=C(O)/C=C\C(=O)O [AFATINIB DIMALEATE]
21

Answer with reported Population Mitochondria Different-Phenotype (%) of CNC(=O)c1cc(Oc2ccc(NC(=O)Nc3cc(C(C)(C)C)nn3-c3ccc4ncccc4c3)c(F)c2)ccn1 [REBASTINIB]
28

Answer with reported Population Mitochondria Different-Phenotype (%) of Cl.Cl.NC1(c2ccc(-c3nc4ccn5c(=O)[nH]nc5c4cc3-c3ccccc3)cc2)CCC1
10

Answer with reported Population Mitochondria Different-Phenotype (%) of CN(C)CCOc1ccc(-c2nc(-c3ccncc3)c(-c3ccc4c(c3)CC/C4=N\O)[nH]2)cc1 [SB590885]
3

Answer with reported Population Mitochondria Different-Phenotype (%) of Nc1nc2c(c(N3CCNCC3)n1)CCC1=C2[C@@H]2CCCC[C@@H]2O1
16

* * *

tested on: Fibroblast; assay: Incucyte cell viability with human fibroblast; assay type: toxicity, cell-based; settings: 24 h, 10 µM, compound concentration 10 uM, replicate number 1, timepoint 24 hours; also: filed as whole numbers so only -1 and 0 and 1 occur
Reported Growth Rate values follow for various compounds
Write the value as a bare number.

SMILES TEXT: CC(C)Oc1ccc(-c2nn([C@@H](C)c3oc4ccc(F)cc4c(=O)c3-c3cccc(F)c3)c3ncnc(N)c23)cc1F
ASSAY VALUE: 1
--
SMILES TEXT: CO[C@@H]1COCC[C@@H]1N[C@@H]1CC[C@@](C(=O)N2CCc3ncc(C(F)(F)F)cc3C2)(C(C)C)C1
ASSAY VALUE: 1

Answer with reported Growth Rate of CCOC(=O)c1cc(C#N)c(N2CCC(C(=O)NS(=O)(=O)Cc3ccccc3)CC2)nc1C
1

Answer with reported Growth Rate of Cc1cnc(-c2cc(Cl)ccc2F)cc1-n1c(=O)n(CC(N)=O)c2cnccc21
1

* * *

Reported Growth Rate values follow for various compounds
system: HEK-293T; experiment: Incucyte cell viability with HEK293T; assay type: toxicity, cell-based; details: human, 6 h, 10 µM, compound concentration 10 uM, replicate number 1, timepoint 6 hours; also: filed as whole numbers so only -1 and 0 and 1 occur

COMPOUND: CC(C)NCC(O)c1ccc(N)c(C#N)c1 (stereo not drawn)
SYSTEM NAME: HEK-293T
Growth Rate: 0
//
COMPOUND: CCCCc1nc(Cl)c(CO)n1Cc1ccc(-c2ccccc2-c2nn[nH]n2)cc1
SYSTEM NAME: HEK-293T
Growth Rate: 1
//
COMPOUND: C[C@@H](NCCc1ccc(O)cc1)[C@@H](O)c1ccc(O)cc1.Cl (relative stereo)
SYSTEM NAME: HEK-293T
Growth Rate: 0
//
COMPOUND: C[C@@H]1CN(c2cc(-c3nn(C)c4ccc(OC5(C)CC5)cc34)ncn2)C[C@H](C)O1
SYSTEM NAME: HEK-293T
Growth Rate: 1
//
COMPOUND: COc1ccc(COc2ccc(Cc3cnc(N)nc3N)cc2OC)cc1 [GW632580X]
SYSTEM NAME: HEK-293T
Growth Rate: 0

Answer with reported Growth Rate of COc1ccccc1C(=O)Nc1cc2c(cc1N1CCCC1)n(C)c(=O)n2C
0

Answer with reported Growth Rate of Cc1nc2sccn2c(=O)c1CCN1CCC(=C(c2ccc(F)cc2)c2ccc(F)cc2)CC1
1

* * *

system: U2OS; assay: Multiplex assay against U2OS; format: toxicity, cell-based; conditions: human, 48 h, 10 µM, compound concentration 10 uM, replicate 1
Rule: Population Membrane Permeable-Phenotype (%) of 40% or more gives met; anything lower gives not met.

COMPOUND: CCCn1c(=O)c2[nH]c(C34CC5CC(CC3C5)C4)nc2n(CCC)c1=O
CATEGORY LABEL: not met

COMPOUND: Nc1nc2c(c(N3CCNCC3)n1)CCC1=C2[C@@H]2CCCC[C@@H]2O1
CATEGORY LABEL: not met

COMPOUND: CC(C)Oc1ccc(C(=O)N[C@H](CNC(=O)CN(C)C)Cc2ccc(-c3cn4cccc([C@H](C)O)c4n3)cc2)cc1Cl [GSK-923295A]
CATEGORY LABEL: met

COMPOUND: CC(=O)c1cc(-c2cc(C(=O)NC3CC3)ccc2C)c2ncccn12
CATEGORY LABEL: not met

COMPOUND: CCc1cc2c(cc1CC)CC(NC[C@H](O)c1ccc(O)c3[nH]c(=O)ccc13)C2
CATEGORY LABEL: not met

Determine whether this compound has Population Membrane Permeable-Phenotype (%) no lower than 40%: Cc1cc2c(cc1N1C(=O)c3cccc4c(CCCO)ccc(c34)C1=O)n(C)c(=O)n2C
not met

Determine whether this compound has Population Membrane Permeable-Phenotype (%) no lower than 40%: Cl.Cl.Nc1ncnc2c1c(-c1cccc(OCc3ccccc3)c1)cn2[C@H]1C[C@@H](CN2CCC2)C1
met

Determine whether this compound has Population Membrane Permeable-Phenotype (%) no lower than 40%: CCC(=O)O[C@]1(C(=O)SCF)[C@H](C)C[C@H]2[C@@H]3C[C@H](F)C4=CC(=O)C=C[C@]4(C)[C@@]3(F)[C@@H](O)C[C@@]21C [FLUTICASONE PROPIONATE]
met

Source: ChEMBL document CHEMBL4689842
